tested on: p38-beta; construct: gene MAPK11; conditions: concentration: 1 μM, replicates: in singlicate; n = 1;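 note: KINOMEscan kinase panel screen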
Metric name: %Inh

// worked examples, %Inh included
{"Compound": "O=c1[nH]cc(-c2ccc(N3CCOCC3)cc2)c2sc(-c3cn[nH]c3)cc12 [GSK2276055]", "System name": "p38-beta", "%Inh": "0%"}
{"Compound": "O=C(Nc1n[nH]c2cc(-c3ccoc3)ccc12)C1CC1 [SB-738481]", "System name": "p38-beta", "%Inh": "0%"}
{"Compound": "COc1ccc(CNC(=O)NC2CCN(c3ccnc(Nc4ccc(F)cc4)n3)CC2)cc1 [GSK1379788]", "System name": "p38-beta", "%Inh": "0%"}
{"Compound": "O=C(Nc1cccc(-c2nn3ccccc3c2-c2ccnc(Nc3cccc(F)c3)n2)c1)c1c(F)ccc(F)c1Cl [GSK357952]", "System name": "p38-beta", "%Inh": "26%"}

// next item, %Inh requested
IN: What value of %Inh has been recorded for this entry: Cc1ccc(C(=O)Nc2ccc(Nc3ccnc4cc(-c5nccs5)ccc34)cc2O)cc1.Cl [GW494702]
OUT: 0%

----------
system: IRAK3; settings: concentration: 1 μM, replicates: in singlicate; n = 1
Metric name: %Inh

Examples with answers:
{"Compound": "COc1ccc(-c2coc3ccc(-c4nnc(SCc5ccc(OC)c(C(F)(F)F)c5)o4)cc23)cc1", "Metric name": "%Inh", "Value": "4%"}
{"Compound": "Nc1ncc(-c2ccc3nccc(-c4ccncc4)c3c2)cc1S(=O)(=O)N1CCOCC1", "Metric name": "%Inh", "Value": "73%"}
{"Compound": "O=C(Nc1ccccc1F)NC1CCN(c2ccnc(Nc3ccc(F)cc3)n2)CC1", "Metric name": "%Inh", "Value": "21%"}
{"Compound": "CCc1ccc(-c2ccc3c(c2)-c2c(cnn2C)S(=O)(=O)N3C)cc1", "Metric name": "%Inh", "Value": "11%"}
{"Compound": "Cl.Cl.NCC(NC(=O)c1cc(-c2ccccc2)c(-c2ccnc3[nH]ccc23)s1)c1ccccc1 (centres unmarked)", "Metric name": "%Inh", "Value": "15%"}
{"Compound": "COc1cc(Nc2ncc3c(C)nc(-c4cc5ccccc5[nH]4)n3n2)cc(OC)c1OC", "Metric name": "%Inh", "Value": "20%"}
{"Compound": "Cc1cccc(Nc2nc(N[C@H]3CCNC3)ncc2C(N)=O)c1.Cl", "Metric name": "%Inh", "Value": "1%"}

Kindly consider the entry below.
IN: So what's the measured %Inh for this one? O=C(O)C(F)(F)F.O=C(O)C(F)(F)F.O=c1[nH]ccc2nc(N[C@@H]3CCCNC3)nc(Nc3ccc(S(=O)(=O)N4CCOCC4)cc3)c12
OUT: 22%

----------
tested on: AURKA; settings: concentration: 1 μM, replicates: in singlicate; n = 1
Metric name: %Inh (%)
Write the number in % without appending the unit.

{"Compound": "Cn1cc(-c2[nH]c3cc(NC(=O)[C@H](N)C4CCCCC4)cc4c3c2C=NNC4=O)cn1", "Metric name": "%Inh", "Value": 100}
{"Compound": "CNC(=O)c1ccccc1Nc1nc(Nc2ccc(N3CCOCC3)cc2)ncc1Cl.Cl [GSK1576028]", "Metric name": "%Inh", "Value": 100}
{"Compound": "CC(=O)Nc1nc2cnc(Nc3cc(NC(=O)c4cccc(C5(C#N)CC5)c4Cl)ccc3C)nc2s1", "Metric name": "%Inh", "Value": 0}

IN: Can you look up the measured %Inh of O=C(Nc1cccc(-c2nn3ccccc3c2-c2ccnc(Nc3cccc(C(F)(F)F)c3)n2)c1)c1c(F)cccc1F [GSK292658] for me?
OUT: 2

IN: I am curious: what %Inh value has been reported for Cl.Cl.NCC(NCc1ccc(-c2ccnc3[nH]ccc23)s1)c1ccccc1 (stereo not shown) [GSK1321565] ?
OUT: 47

IN: I'd like to know its %Inh. The compound in question is O=C(Nc1ccccc1F)NC1CCN(c2ccnc(Nc3ccc(F)cc3)n2)CC1 [GSK1379800]
OUT: 15

IN: Name the recorded %Inh for COc1cc(Nc2ncc3c(C)nc(-c4cc5ccccc5[nH]4)n3n2)cc(OC)c1OC [GW869516] .
OUT: 0

IN: Item under review: Nc1ncc(-c2cccnc2)c2scc(-c3ccc4c(c3)CCN4C(=O)Cc3ccccc3)c12 [GSK683281] . Reported %Inh?
OUT: 25

IN: Which %Inh is listed for Cc1cccc(NC(=O)Nc2ccc(Oc3ncnc4ccn(C)c34)cc2)c1 ?
OUT: 0

IN: Return reported %Inh; argument: COc1cc(Nc2nccc(N3CCC(NC(=O)c4cc5ccccc5s4)C3)n2)cc(OC)c1OC (stereo not shown) [GSK1379760]
OUT: 59

IN: Find the recorded %Inh belonging to CN(C)S(=O)(=O)c1cc(-c2ccc3nccc(-c4cccc(S(N)(=O)=O)c4)c3c2)cnc1N [GSK1669921] and report it.
OUT: 8

IN: // %Inh lookup, key: CN1CCN(Cc2cccc(-c3ccc4c(Nc5ccc(Oc6ccccc6)cc5)ccnc4c3)c2)CC1 [GW578342]
OUT: 6

IN: Suppose we examine the compound CCn1c(-c2nonc2N)nc2c(C#CC(C)(C)O)ncc(OCCCCN)c21.O=C(O)C(F)(F)F.O=C(O)C(F)(F)F [GSK507274] ; what %Inh value has been reported?
OUT: 0

IN: Returns the measured %Inh for the input compound. Input: CCc1ccc(-c2ccc3c(c2)-c2c(cnn2C)S(=O)(=O)N3C)cc1
OUT: 14

IN: Item CCn1c(-c2nonc2N)nc2c(C#CC(C)(C)O)nc(OC[C@H](N)c3ccccc3)cc21 [GSK943949] has what recorded %Inh?
OUT: 37

IN: # %Inh lookup, item CN(c1ccc(NC(=O)Nc2cc(C(F)(F)F)ccc2F)cc1)c1ccnc(Nc2ccc(S(N)(=O)=O)cc2)n1 [GW809893]
OUT: 90.7

IN: Would you mind telling me what %Inh value was observed for COC(=O)Nc1nc2ccc(Oc3ccc(NC(=O)Nc4cc(C(F)(F)F)ccc4F)cc3)cc2n1C.Cl [GW692089] ?
OUT: 0

IN: Data request, read-out %Inh, for CN(C)Cc1ccc(-c2ccc3c(Nc4ccc(Oc5ccccn5)cc4)ccnc3c2)o1 [GW567148]
OUT: 0

IN: Entry c1ccc(-c2cnc3nccnn23)cc1 [AH20685] : reported %Inh = ?
OUT: 0

These measurements were taken from paper PMC5540273.
